assay: Cytotoxicity against HEK293T cells assessed as reduction in cell viability after 48 hrs by MTT assay; assay type: cell-based, HEK-293T; conditions: human
readoutLabel: CC50 at 48 h

molecule="Cn1cc(C2CC(c3ccc(Cl)cc3)=NN2C(=O)c2cccnc2)c2cc(Br)ccc21 (stereo unspecified)" assayresult="> 300 µM"
molecule="COc1ccc2c(c1)c(C1CC(c3ccc(Br)cc3)=NN1C(=O)c1ccc(OC)nc1)cn2C (stereo unspecified)" assayresult="> 300 µM"
molecule="COc1cccc(C2=NN(C(=O)c3ccc(C)nc3)C(c3cn(C)c4ccc(OC)cc34)C2)c1 (stereo unspecified)" assayresult="> 300 µM"
molecule="COc1ccc(C2=NN(C(=O)c3cccnc3)C(c3cn(C)c4ccc(Br)cc34)C2)cc1 (stereo unspecified)" assayresult="> 300 µM"
molecule="COc1cccc(C2=NN(C(=O)c3cccnc3)C(c3cn(C)c4ccc(OC)cc34)C2)c1 (stereo unspecified)" assayresult="125 µM"
molecule="COc1ccc(C(=O)N2N=C(c3ccccc3)CC2c2cn(C)c3ccccc23)cn1 (stereo unspecified)" assayresult="> 300 µM"
molecule="COc1cc(C2=NN(C(=O)c3ccc(C)nc3)C(c3cn(C)c4ccccc34)C2)cc(OC)c1OC (stereo unspecified)" assayresult="> 300 µM"
molecule="Cn1cc(C2CC(c3ccccc3)=NN2C(=O)c2ccc(Cl)nc2)c2ccccc21 (stereo unspecified)" assayresult="> 300 µM"
molecule="Cn1cc(C2CC(c3ccccc3)=NN2C(=O)c2cccnc2Cl)c2ccccc21 (stereo unspecified)" assayresult="> 300 µM"
molecule="COc1ccc2c(c1)c(C1CC(c3ccc(F)cc3)=NN1C(=O)c1ccc(OC)nc1)cn2C (stereo unspecified)" assayresult="> 300 µM"
molecule="COc1ccc2c(c1)c(C1CC(c3ccccc3)=NN1C(=O)c1cccnc1)cn2C (stereo unspecified)" assayresult="> 300 µM"
molecule="COc1ccc(C2=NN(C(=O)c3ccc(OC)nc3)C(c3cn(C)c4ccc(OC)cc34)C2)cc1 (stereo unspecified)" assayresult="> 300 µM"
molecule="COc1ccc2c(c1)c(C1CC(c3ccccc3)=NN1C(=O)c1ccc(OC)nc1)cn2C (stereo unspecified)" assayresult="> 300 µM"
molecule="COc1ccc(/C=C\\c2cc(OC)c(OC)c(OC)c2)cc1O [COMBRETASTATIN A4]" assayresult="> 300 µM"
molecule="COc1cccc(C2=NN(C(=O)c3ccc(OC)nc3)C(c3cn(C)c4ccc(OC)cc34)C2)c1 (stereo unspecified)" assayresult="> 300 µM"
molecule="Cn1cc(C2CC(c3ccccc3)=NN2C(=O)c2cccnc2)c2cc(Br)ccc21 (stereo unspecified)" assayresult="> 300 µM"
molecule="Cn1cc(C2CC(c3ccc(Br)cc3)=NN2C(=O)c2cccnc2)c2cc(Br)ccc21 (stereo unspecified)" assayresult="> 300 µM"
molecule="Cn1cc(C2CC(c3ccc(F)cc3)=NN2C(=O)c2cccnc2)c2cc(Br)ccc21 (stereo unspecified)" assayresult="> 300 µM"
molecule="Cn1cc(C2CC(c3ccccc3)=NN2C(=O)c2cccnc2)c2ccccc21 (stereo unspecified)" assayresult="> 300 µM"
molecule="Cc1ccc(C(=O)N2N=C(c3ccccc3)CC2c2cn(C)c3ccccc23)cn1 (stereo unspecified)" assayresult="154 µM"
molecule="COc1ccc(C2=NN(C(=O)c3cccnc3)C(c3cn(C)c4ccc(Br)cc34)C2)cc1OC (stereo unspecified)" assayresult="> 300 µM"
molecule="COc1ccc2c(c1)c(C1CC(c3cc(OC)c(OC)c(OC)c3)=NN1C(=O)c1ccc(OC)nc1)cn2C (stereo unspecified)" assayresult="> 300 µM"
molecule="COc1cc(C2=NN(C(=O)c3cccnc3)C(c3cn(C)c4ccc(Br)cc34)C2)cc(OC)c1OC (stereo unspecified)" assayresult="131 µM"
molecule="COc1ccc2c(c1)c(C1CC(c3ccc(Cl)cc3)=NN1C(=O)c1ccc(OC)nc1)cn2C (stereo unspecified)" assayresult="> 300 µM"
molecule="COc1ccc(C2=NN(C(=O)c3ccncc3)C(c3cn(C)c4ccc(Br)cc34)C2)cc1OC (stereo unspecified)" assayresult="> 300 µM"
molecule="Cn1cc(C2CC(c3ccccc3)=NN2C(=O)c2ccncc2)c2ccccc21 (stereo unspecified)" assayresult="97.3 µM"
